test system: L1210 leukemia ip in BDF1 mice, survival T/C; test: NCI In Vivo Anticancer Drug Screen. Data for tumor model L1210 Leukemia (intraperitoneal) in B6D2F1 (BDF1) mice; details: endpoint: mean survival time; dose: 400.0 mg/kg/injection; schedule: Q01DX001 (ip); vehicle: carboxymethylcellulose (CMC); higher = longer survival
Toxic doses and inconclusive results are not listed.
Exercise: for every item that follows, state its recorded T/C.

COMPOUND	ASSAY VALUE
CCCC1(C(=O)OCC)CCCC1=O (centres undefined)	92 % of control
Cc1cccc(OCc2ccccc2)n1	100 % of control
CC(=O)/C(N=Nc1ccccc1)=C(\C)O	95 % of control

Batch lookup, T/C per entry.
1. CC1Cc2cccc3ccc(=O)n(c23)C1 (centres undefined)
2. CC1(CCOCc2ccccc2)NC(=O)N(CCC#N)C1=O (centres undefined)
3. CN(C)c1ccc2c(c1)Cc1cc(NC(N)=O)ccc1-2

A.
["98 % of control", "91 % of control", "91 % of control"]

Would you mind giving T/C for every compound in the list below?
1. Cc1ccc(-c2ccno2)cc1
2. COc1ccccc1CCO
3. CC(=O)NC(C)(CCOCc1ccccc1)C(=O)O (centres undefined)
4. CC(=O)Nc1c(Cl)c(Cl)c2c(c1Cl)C(O)c1cc(Cl)ccc1-2 (centres undefined)

A.
1. 97 % of control
2. 98 % of control
3. 96 % of control
4. 114 % of control

# return T/C for each item in the list
1. C[n+]1ccsn1
2. ClCCN(CCCl)c1ccc(C=Nc2cccc(Cl)c2)cc1
3. CN(Cc1cnc(N)nc1N)c1ccc(C(=O)O)cc1
4. Nc1ccc(S(=O)(=O)c2cc(O)ccc2O)cc1

A.
95 % of control
105 % of control
92 % of control
97 % of control

* * *

tested on: L1210 leukemia ip in BDF1 mice, survival T/C; experiment: NCI In Vivo Anticancer Drug Screen. Data for tumor model L1210 Leukemia (intraperitoneal) in B6D2F1 (BDF1) mice; settings: endpoint: mean survival time; dose: 200.0 mg/kg/injection; schedule: Q01DX001 (ip); vehicle: carboxymethylcellulose (CMC); higher = longer survival
Inconclusive results and toxic doses are left out.
QUANTITY NAME: T/C

MOLECULE	SYSTEM NAME	T/C
COc1ccccc1CCO	L1210 leukemia ip in BDF1 mice, survival T/C	98 % of control
CC(=O)/C(N=Nc1ccccc1)=C(\C)O	L1210 leukemia ip in BDF1 mice, survival T/C	87 % of control
CC(=O)CC(=O)N(c1ccccn1)c1ccccn1	L1210 leukemia ip in BDF1 mice, survival T/C	98 % of control
CCSC(SCC)C(SCC)C(OC(=O)c1ccccc1)C(OC(=O)c1ccccc1)C(COC(=O)c1ccccc1)OC(=O)c1ccccc1 (stereo not given)	L1210 leukemia ip in BDF1 mice, survival T/C	112 % of control
O=C(CCN1CC2CCC(CC2)C1)c1csc2ccccc12	L1210 leukemia ip in BDF1 mice, survival T/C	97 % of control
CC1([N+](=O)[O-])COP(=O)(NCc2ccccc2)OC1 (stereo not given)	L1210 leukemia ip in BDF1 mice, survival T/C	109 % of control

Look up T/C for the entries below, preserving their order.
1. CCCCCCc1cc(N=Nc2ccc(S(=O)(=O)Nc3nnc(C)s3)cc2)c(O)cc1O
2. Cc1[nH]c2ccccc2c1C1CCC(=O)C1 (stereo not given)
3. COC1=C(NC2CCCCC2)C(=O)C(OC)=C(NC2CCCCC2)C1=O

A.
["95 % of control", "89 % of control", "101 % of control"]

List T/C for every entry below, keeping the order given.
1. O=C(N/N=C/c1ccccc1O)C(O)(c1ccccc1)c1ccccc1
2. ClCCN(CCCl)c1ccc(C=Nc2cccc(Cl)c2)cc1
3. Cc1c(Br)sc2ccccc12

A.
["97 % of control", "105 % of control", "96 % of control"]

# batch size: 2; output T/C per entry
1. CNc1nc(N)nc(Nc2ccc(I)cc2)c1N=O
2. CCn1c2ccccc2c2cc(N=Cc3ccc(N(CCCl)CCCl)cc3C)ccc21

A.
1: 110 % of control; 2: 117 % of control

Look at each molecule and report its T/C.
1. CCOC(=O)CCc1ccc(N=NN(C)C(C)CC)cc1 (stereo not given)
2. CC(=Nc1ccccc1)C1=C(O)C(CC(C)C)NC1=O (stereo not given)
3. O=C(OCC(O)C(O)C(O)C(O)COC(=O)c1ccccc1)c1ccccc1 (stereo not given)
4. COc1ccc(-c2cc(-c3ccccc3)[nH]c(=O)c2N(C)C)cc1
5. O=[N+]([O-])c1ccccc1C/C=C/CCl
6. C[n+]1ccsn1
7. Cc1ccc(S(=O)(=O)N2CCC=Cc3ccccc32)cc1
8. O=C1CC(Cc2n[nH]c3c2CCCC3)CC(=O)N1

A.
["105 % of control", "101 % of control", "95 % of control", "91 % of control", "96 % of control", "93 % of control", "102 % of control", "95 % of control"]

// for each molecule in input: emit T/C
1. CC(=O)Nc1c(Cl)c(Cl)c2c(c1Cl)C(O)c1cc(Cl)ccc1-2 (stereo not given)
2. ClCCN(CCCl)c1ccc(-c2csc(Cc3ccccc3)n2)cc1

A.
1: 97 % of control; 2: 92 % of control

Q. So what does the record say about T/C for OC1(C2(O)CCC2)CCC1 ?
A. 95 % of control

* * *

test system: L1210 leukemia ip in BDF1 mice, survival T/C; assay: NCI In Vivo Anticancer Drug Screen. Data for tumor model L1210 Leukemia (intraperitoneal) in B6D2F1 (BDF1) mice; conditions: endpoint: mean survival time; dose: 400.0 mg/kg/injection; schedule: Q04DX003 (ip); vehicle: other; higher = longer survival
Toxic doses and inconclusive results are not listed.
QUANTITY NAME: T/C

Would you please look over these solved cases?
COMPOUND	T/C
COc1ccc(C(=O)Nc2cc(Cl)ccc2OC)cc1	105 % of control
N#Cc1c(F)c(F)c(Oc2c(F)c(F)c(F)c(Oc3c(F)c(F)c(C#N)c(F)c3F)c2F)c(F)c1F	86 % of control
Cc1ccc(S(=O)(=O)Oc2c(Cl)c(Cl)c(Cl)c(Cl)c2Cl)cc1	90 % of control

Please supply T/C for each of the following items, keeping them in order.
1. CC(Br)C(Br)(C(=O)O)c1ccccc1 (configuration not stated)
2. C=CCCCCCCCCC(=O)N/N=C/c1ccc(NC(C)=O)cc1
3. c1ccc(NC(c2ccccc2)C(Nc2ccccc2)(c2ccccc2)c2ccccc2)cc1 (configuration not stated)
4. CC(=O)Nc1cc(Cl)ccc1C(=O)O

A.
["96 % of control", "86 % of control", "87 % of control", "96 % of control"]

* * *

Provide the recorded T/C for the entries that follow.
system: L1210 leukemia ip in BDF1 mice, survival T/C; assay: NCI In Vivo Anticancer Drug Screen. Data for tumor model L1210 Leukemia (intraperitoneal) in B6D2F1 (BDF1) mice; conditions: endpoint: mean survival time; dose: 100.0 mg/kg/injection; schedule: Q04DX002 (ip); vehicle: Klucel (hydroxypropylcellulose) (HPC); higher = longer survival
Inconclusive results and toxic doses are left out.

# annotated cases, reported T/C shown
MOLECULE	ASSAY VALUE
COc1cc2c(c(OC)c1OC)CCc1cnoc1-2	97 % of control
CN(C)C1(Cc2ccccc2)c2ccccc2-c2ccccc21	106 % of control
COc1cc(C(=O)N=Nc2c(O)[nH]c3ccc(Br)cc23)cc(OC)c1OC	115 % of control
CC(=O)c1c(C)n(C)c2ccccc12	95 % of control
N#Cc1nc2c3ccccc3c(N=NC(N)=S)c-2[nH]c1C#N	91 % of control

Quick request: T/C for each listed item, please.
1. CCOC(=O)c1ccc(N2C(=O)CC(Sc3ccccc3N)C2=O)cc1 (stereo not given)
2. O=C(O)C12C3CCC(O3)C1(C(=O)O)C1CCC2O1 (stereo not given)
3. O=C(Nc1cccc2ccccc12)OCc1ccccc1
4. CCCCCCCCCCCC(=O)N/N=C(\c1ccccc1)c1ccc(Cl)cc1
5. Cc1cc(-c2ccccc2O)nc(N(C)CC(=O)O)n1
6. Cc1cccc(NC(=O)c2c(Cl)c(Cl)c(Cl)c(Cl)c2C(=O)O)c1C

A.
1. 103 % of control
2. 104 % of control
3. 108 % of control
4. 103 % of control
5. 94 % of control
6. 91 % of control

* * *

system: L1210 leukemia ip in BDF1 mice, survival T/C; assay: NCI In Vivo Anticancer Drug Screen. Data for tumor model L1210 Leukemia (intraperitoneal) in B6D2F1 (BDF1) mice; conditions: endpoint: mean survival time; dose: 400.0 mg/kg/injection; schedule: Q01DX009 (ip); vehicle: saline; higher = longer survival
Toxic doses and inconclusive results are not listed.
QUANTITY NAME: T/C

COMPOUND	T/C
O=S(=O)(c1ccc(Cl)cc1)N1CCN(S(=O)(=O)c2ccc(Cl)cc2)C1	92 % of control
COc1ccc(/C=C2\CCC3C(CCCC34OCCO4)C2=O)cc1 (stereo not given)	104 % of control
CN1OC(C#N)(C#N)C(C#N)(C#N)C1c1ccccc1 (stereo not given)	101 % of control
O=NC1C(Cl)C2CC1C1c3ccccc3C21 (stereo not given)	89 % of control
CCOC(=O)CNCc1cccnc1	95 % of control
CC1(C)N=C(N)N=C(N)N1c1ccc(OCC(=O)Nc2ccc(S(=O)(=O)F)cc2)c(Cl)c1	109 % of control
Nc1ccc(C(=O)Nc2ccc(Nc3ccncc3)cc2)c([N+](=O)[O-])c1	106 % of control
OC1CCCSC1 (stereo not given)	98 % of control

Please state T/C for every compound in the list that follows.
1. CC(C)(C)NC(=O)Oc1ccc(Br)cc1Br
2. O=c1[nH]cnc2c1ncn2C1OC(CF)C(O)C1O (stereo not given)
3. C/C=C/C(=O)OC
4. CCN(CC)CC(=O)NCC(C)(CCN1CCOCC1)c1cccc2ccccc12 (stereo not given)
5. CC(=O)NC(C)C(C)(C)O (stereo not given)

A.
104 % of control
101 % of control
104 % of control
110 % of control
103 % of control

Please supply T/C for each of the following items, keeping them in order.
1. CCC1(C)NC(=O)NC1=O (stereo not given)
2. CC1OCC2OC(C)OC(C(COC(c3ccccc3)(c3ccccc3)c3ccccc3)OS(C)(=O)=O)C2O1 (stereo not given)

A.
1. 109 % of control
2. 88 % of control
